measuredTarget: rat brain A1 receptor (Rattus norvegicus)
Construct: Rat cerebral cortical and striatal membranes were prepared; from tissue; host or cells: rat brain membranes (cerebral cortical)
Sequence (P25099 whole entry): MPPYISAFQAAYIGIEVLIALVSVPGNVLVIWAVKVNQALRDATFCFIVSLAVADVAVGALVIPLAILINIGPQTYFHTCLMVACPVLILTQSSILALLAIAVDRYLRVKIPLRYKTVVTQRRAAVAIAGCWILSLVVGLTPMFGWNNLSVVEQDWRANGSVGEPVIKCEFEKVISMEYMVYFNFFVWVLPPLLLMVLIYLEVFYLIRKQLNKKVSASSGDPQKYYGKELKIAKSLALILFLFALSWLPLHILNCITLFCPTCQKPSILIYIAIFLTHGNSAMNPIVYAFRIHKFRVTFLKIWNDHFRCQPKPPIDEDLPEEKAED
assayText: Displacement of [^3 H]PIA binding at A1 receptors
particulars: [^3 H]PIA, rat brain membranes; Ki ± S.E.M., n = 3-6
pKi: −log10 of the molar value.
attributeMeasured: pKi

compound	dataValue
OC[C@@H](O)Cn1cnc2c(NCc3cccc(I)c3)ncnc21	4.86
CNC(=O)[C@@H]1C[C@H](N)[C@H](n2cnc3c(NCc4cccc(I)c4)nc(Cl)nc32)O1	5.17
Cn1cnc2c(NCc3cccc(I)c3)nc(Sc3ccncc3)nc21	6.08
CNC(=O)[C@@H]1C[C@@H](OS(C)(=O)=O)[C@H](n2cnc3c(NCc4cccc(I)c4)nc(Cl)nc32)O1	5.89
CNc1nc(NCc2cccc(I)c2)c2ncn(C)c2n1	6.19
COc1nc(NCc2cccc(I)c2)c2ncn(C)c2n1	6.30
N#CCCCn1cnc2c(NCc3cccc(I)c3)ncnc21	5.22
Cn1cnc2c(NCc3cccc(I)c3)nc(Cl)nc21	6.35
CNC(=O)[C@H]1O[C@@H](n2cnc3c(NCc4cccc(I)c4)nc(Cl)nc32)[C@@H]2OC(=S)O[C@@H]21	6.75
CNC(=O)[C@@H]1CC[C@H](n2cnc3c(NCc4ccccc4)nc(Cl)nc32)O1	4.94
CNC(=O)[C@@H]1C[C@H](N=[N+]=[N-])[C@H](n2cnc3c(NCc4cccc(I)c4)nc(Cl)nc32)O1	6.40
Cn1cnc2c(NCc3cccc(I)c3)ncnc21	5.24
CN(C)c1nc(NCc2cccc(I)c2)c2ncn(C)c2n1	5.83
CC(C)[Si]1(C(C)C)OC[C@H]2O[C@@H](n3cnc4c(NCc5cccc(I)c5)nc(Cl)nc43)[C@H](O)[C@@H]2O[Si](C(C)C)(C(C)C)O1	4.18
CSc1nc(NCc2cccc(I)c2)c2ncn(C)c2n1	5.72
CNC(=O)[C@H]1O[C@@H](n2cnc3c(NCc4ccco4)ncnc32)[C@H](O)[C@@H]1O	5.06
OC[C@H](O)Cn1cnc2c(NCc3cccc(I)c3)ncnc21	4.72
OCCn1cnc2c(NCc3cccc(I)c3)ncnc21	4.64
CNC(=O)[C@@H]1C[C@@H](OC(C)=O)[C@H](n2cnc3c(NCc4cccc(I)c4)nc(Cl)nc32)O1	6.11
Cn1cnc2c(NCc3cccc(I)c3)nc(N)nc21	5.25
CNC(=O)[C@@H]1C[C@@H](O)[C@H](n2cnc3c(NCc4cccc(I)c4)nc(Cl)nc32)O1 [Compound 41b]	5.99
Cn1cnc2c(NCc3cccc(I)c3)nc(NN)nc21	5.26
